IC50 values by entry
- study.target: CD38 (Homo sapiens)
- Construct: incubating 1 mM cADPR with 2 mg/mL of CD38 for 10 min
- Sequence (P28907 1-300): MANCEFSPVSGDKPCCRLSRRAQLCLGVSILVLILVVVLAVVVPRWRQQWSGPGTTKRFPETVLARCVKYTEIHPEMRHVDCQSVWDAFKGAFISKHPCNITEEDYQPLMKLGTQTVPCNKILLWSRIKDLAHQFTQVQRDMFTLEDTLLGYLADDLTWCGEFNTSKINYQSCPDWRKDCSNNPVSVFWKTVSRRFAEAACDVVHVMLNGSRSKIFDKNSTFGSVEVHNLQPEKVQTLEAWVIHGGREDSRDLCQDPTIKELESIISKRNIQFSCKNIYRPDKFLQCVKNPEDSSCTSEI
- method: Inhibition of CD38-catalyzed cADPR hydrolysis (fluorimetric cycling assay)
- Type: biochemical
- experimental.conditions: 1 mM cADPR, 2 mg/mL CD38, 10 min, pH 4.5; IC50 values >1000 μM are approximate; read-out: inhibitory activity (IC50) of CD38-mediated cADPR hydrolysis

Here is how some compounds turned out for IC50.
Nc1nc2c(=O)n([C@@H]3O[C@H](CO)[C@@H](O)[C@H]3O)cnc2n1[C@@H]1O[C@H](CO)[C@@H](O)[C@H]1O :: ~7.6 mM
Nc1nc2c(=O)n([C@@H]3O[C@H](CO)[C@@H](O)[C@H]3O)cnc2n1CCCCO :: ~3.3 mM

Let us move to another entry and its IC50.
Problem: For [N-]=[N+]=Nc1nc2c(=O)n([C@@H]3O[C@H](CO)[C@@H](O)[C@H]3O)cnc2n1CCCCO , what is its reported IC50?
Result: ~9.5 mM
